- EXPERIMENT_NOTES: BSK_3C_Proliferation: Cell Proliferation Assessment in the BioMAP Diversity Plus: 3C Assay (AID 2283006);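 for AC50: potency may reflect either rise or fall in cell number versus DMSO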
- MEASUREMENT_PARAMETERS: primary human endothelial cells (HUVEC)
Calls of active or inactive are those of the source. Rule for the calls: active = hit-call score of the fitted dose curve at least 0.9, where 1 is the maximum; inactive = score below 0.9.

{"columns": ["MOLECULE", "AC50"],
 "data": [
  ["CN(C)C(=O)Nc1ccc(Cl)cc1", "inactive"],
  ["Cc1ccc(N)cc1", "inactive"],
  ["CCOC(=O)[C@]1(c2ccccc2)Oc2ccccc2[C@@H]1N", "30.9 µM (active)"],
  ["c1ccc(NNc2ccccc2)cc1", "inactive"],
  ["CN(C)c1ccccc1", "inactive"],
  ["O=C(N[C@H](c1ccccc1)[C@@H]1CN2CCC1CC2)c1c(Cl)ccc(C(F)(F)F)c1Cl", "29.7 µM (active)"],
  ["c1ccc(N=Nc2ccccc2)cc1", "inactive"],
  ["CS(=O)(=O)NC(=O)c1cc(Oc2ccc(C(F)(F)F)cc2Cl)ccc1[N+](=O)[O-]", "inactive"],
  ["c1ccc2c(c1)-c1cccc3cccc-2c13", "inactive"],
  ["CC(C)(C)OOC(=O)c1ccccc1", "inactive"],
  ["O=[N+]([O-])C(Br)(CO)CO", "5.94 µM (active)"],
  ["CCCCC(CC)COC(=O)c1ccc(C(=O)OCC(CC)CCCC)c(C(=O)OCC(CC)CCCC)c1 (stereo not given)", "inactive"],
  ["C[N+](C)(C)CC1CO1 (stereo not given)", "inactive"],
  ["CC(C)(C)C(O)(CCc1ccc(Cl)cc1)Cn1cncn1 (stereo not given)", "inactive"],
  ["Brc1ccc(Oc2ccccc2)cc1", "inactive"],
  ["[Cl-].[Cl-].[Hg+2]", "32.6 µM (active)"],
  ["OCCOCCO", "inactive"],
  ["CC(C)(O)c1cnn2c(-c3ccc(F)c(-c4c(F)cccc4C#N)c3)cnc2n1", "33.8 µM (active)"],
  ["C=CCc1ccc2c(c1)OCO2", "inactive"],
  ["CCC12COCN1COC2", "inactive"],
  ["ClCCOCCCl", "inactive"],
  ["CC(C)N(Cc1ccccc1)C(=O)C(C)(C)C", "inactive"],
  ["O=C(Oc1ccc(Br)cc1)N1CCN2CCC1CC2", "inactive"],
  ["ClC1=C(Cl)[C@]2(Cl)[C@H]3[C@H]([C@@H]4C=C[C@H]3C4)[C@@]1(Cl)C2(Cl)Cl", "12.2 µM (active)"],
  ["C1=Cc2cccc3cccc1c23", "inactive"],
  ["Oc1ccc2ccc3cccc4ccc1c2c34", "24.6 µM (active)"],
  ["Cc1cccc(N)c1N", "inactive"],
  ["O=C(Nc1ccccc1)c1ccccc1I", "inactive"],
  ["OCCCl", "inactive"],
  ["Cc1ccc(N)c(N)c1", "2.11 µM (active)"]
]}
